Target: UniProtKB Q9Y5L3
Sequence (Q9Y5L3 whole entry): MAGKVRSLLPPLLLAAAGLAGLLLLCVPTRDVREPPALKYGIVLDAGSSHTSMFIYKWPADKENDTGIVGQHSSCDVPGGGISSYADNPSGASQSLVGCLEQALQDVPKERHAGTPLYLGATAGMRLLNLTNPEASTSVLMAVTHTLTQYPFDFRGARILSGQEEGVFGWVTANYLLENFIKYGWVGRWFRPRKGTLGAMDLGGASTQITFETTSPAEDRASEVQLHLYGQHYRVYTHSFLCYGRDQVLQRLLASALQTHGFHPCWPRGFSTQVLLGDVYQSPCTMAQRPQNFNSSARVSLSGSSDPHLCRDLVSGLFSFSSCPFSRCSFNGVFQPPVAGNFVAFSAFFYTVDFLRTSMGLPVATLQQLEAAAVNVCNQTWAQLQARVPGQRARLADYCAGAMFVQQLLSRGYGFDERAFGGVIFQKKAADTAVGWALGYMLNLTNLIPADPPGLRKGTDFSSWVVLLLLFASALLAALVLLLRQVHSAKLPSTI
MEASURED ATTRIBUTE: IC50

>>> recorded_value("FC(F)(F)c1nc2c(-c3ccsc3)cccc2c(Cl)c1Br")
"> 300 µM"

* * *

Target: Ectonucleotide pyrophosphatase/phosphodiesterase family member 3 (Homo sapiens, UniProt O14638)
Sequence (O14638 whole entry): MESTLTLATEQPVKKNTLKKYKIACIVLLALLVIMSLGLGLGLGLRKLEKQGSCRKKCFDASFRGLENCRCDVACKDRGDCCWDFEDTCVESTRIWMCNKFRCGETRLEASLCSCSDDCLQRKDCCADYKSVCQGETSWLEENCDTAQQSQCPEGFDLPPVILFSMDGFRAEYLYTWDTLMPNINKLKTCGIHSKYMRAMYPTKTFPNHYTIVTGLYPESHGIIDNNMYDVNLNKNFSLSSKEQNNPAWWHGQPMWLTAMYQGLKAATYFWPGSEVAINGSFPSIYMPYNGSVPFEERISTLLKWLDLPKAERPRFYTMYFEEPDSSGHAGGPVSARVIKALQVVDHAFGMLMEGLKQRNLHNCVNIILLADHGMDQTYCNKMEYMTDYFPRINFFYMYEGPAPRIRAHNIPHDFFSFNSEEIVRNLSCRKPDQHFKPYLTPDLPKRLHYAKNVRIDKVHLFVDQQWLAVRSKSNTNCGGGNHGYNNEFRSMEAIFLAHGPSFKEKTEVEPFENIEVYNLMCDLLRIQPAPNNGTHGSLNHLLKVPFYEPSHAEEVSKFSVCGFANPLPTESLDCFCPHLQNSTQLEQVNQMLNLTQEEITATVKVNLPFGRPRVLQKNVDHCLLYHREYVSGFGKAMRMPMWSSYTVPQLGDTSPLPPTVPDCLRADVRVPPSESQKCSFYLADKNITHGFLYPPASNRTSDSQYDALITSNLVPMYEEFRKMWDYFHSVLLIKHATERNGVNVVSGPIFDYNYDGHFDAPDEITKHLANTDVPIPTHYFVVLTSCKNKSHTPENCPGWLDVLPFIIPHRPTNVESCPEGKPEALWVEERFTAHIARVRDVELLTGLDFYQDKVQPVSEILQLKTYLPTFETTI
Assay: Inhibition of human full length NPP3 expressed in African green monkey COS7 cell membrane fraction using p-nitrophenyl-5'-thymidine monophosphate as substrate preincubated for 10 mins followed by substrate addition measured after 30 mins
MEASURED ATTRIBUTE: IC50 (nM)

>>> recorded_value("COc1ccc(-c2cccc3c(Cl)c(Br)c(C(F)(F)F)nc23)cc1")
1140
>>> recorded_value("FC(F)(F)c1nc2c(Br)cccc2c(Cl)c1Br")
390
>>> recorded_value("O=c1c(Br)c(C(F)(F)F)[nH]c2c(Br)cccc12")
2420
>>> recorded_value("COc1ccc(OC)c(-c2cccc3c(Cl)c(Br)c(C(F)(F)F)nc23)c1")
360

* * *

pIC50 data for Ectonucleoside triphosphate diphosphohydrolase 8 (Homo sapiens) follow.
pIC50: −log10 of the molar value.
MEASURED ATTRIBUTE: pIC50

>>> recorded_value("FC(F)(F)c1nc2c(-c3ccccc3)cccc2c(Cl)c1-c1ccccc1")
"< 3.52"
>>> recorded_value("COc1ccc(-c2c(C(F)(F)F)nc3c(-c4ccc(OC)cc4)cccc3c2-c2ccc(OC)cc2)cc1")
"< 3.52"

* * *

Target: Ectonucleoside triphosphate diphosphohydrolase 3 (Homo sapiens)
Sequence (O75355 whole entry): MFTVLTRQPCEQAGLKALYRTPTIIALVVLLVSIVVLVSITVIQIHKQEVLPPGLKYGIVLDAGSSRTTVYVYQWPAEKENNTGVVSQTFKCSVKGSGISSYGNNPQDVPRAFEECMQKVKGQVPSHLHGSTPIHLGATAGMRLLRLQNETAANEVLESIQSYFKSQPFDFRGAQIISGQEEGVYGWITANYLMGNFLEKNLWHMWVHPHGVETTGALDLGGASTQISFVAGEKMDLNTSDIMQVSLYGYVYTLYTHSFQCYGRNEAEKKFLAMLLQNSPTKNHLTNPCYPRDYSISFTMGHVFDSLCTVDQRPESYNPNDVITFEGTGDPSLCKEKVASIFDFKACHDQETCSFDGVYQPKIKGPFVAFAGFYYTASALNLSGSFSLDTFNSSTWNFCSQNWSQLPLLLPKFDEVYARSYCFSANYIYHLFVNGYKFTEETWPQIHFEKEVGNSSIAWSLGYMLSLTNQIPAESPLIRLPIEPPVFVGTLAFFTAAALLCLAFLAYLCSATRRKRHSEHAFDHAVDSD
pIC50: −log10 of the molar value.
Listing: pIC50 of selected compounds
MEASURED ATTRIBUTE: pIC50

>>> recorded_value("FC(F)(F)c1nc2c(-c3ccccc3)cccc2c(Cl)c1-c1ccccc1")
"< 3.52"
>>> recorded_value("FC(F)(F)c1nc2c(-c3ccsc3)cccc2c(Cl)c1Br")
"< 3.52"

* * *

target: Ectonucleotide pyrophosphatase/phosphodiesterase family member 1 (Homo sapiens, UniProt P22413)
Sequence (P22413 whole entry): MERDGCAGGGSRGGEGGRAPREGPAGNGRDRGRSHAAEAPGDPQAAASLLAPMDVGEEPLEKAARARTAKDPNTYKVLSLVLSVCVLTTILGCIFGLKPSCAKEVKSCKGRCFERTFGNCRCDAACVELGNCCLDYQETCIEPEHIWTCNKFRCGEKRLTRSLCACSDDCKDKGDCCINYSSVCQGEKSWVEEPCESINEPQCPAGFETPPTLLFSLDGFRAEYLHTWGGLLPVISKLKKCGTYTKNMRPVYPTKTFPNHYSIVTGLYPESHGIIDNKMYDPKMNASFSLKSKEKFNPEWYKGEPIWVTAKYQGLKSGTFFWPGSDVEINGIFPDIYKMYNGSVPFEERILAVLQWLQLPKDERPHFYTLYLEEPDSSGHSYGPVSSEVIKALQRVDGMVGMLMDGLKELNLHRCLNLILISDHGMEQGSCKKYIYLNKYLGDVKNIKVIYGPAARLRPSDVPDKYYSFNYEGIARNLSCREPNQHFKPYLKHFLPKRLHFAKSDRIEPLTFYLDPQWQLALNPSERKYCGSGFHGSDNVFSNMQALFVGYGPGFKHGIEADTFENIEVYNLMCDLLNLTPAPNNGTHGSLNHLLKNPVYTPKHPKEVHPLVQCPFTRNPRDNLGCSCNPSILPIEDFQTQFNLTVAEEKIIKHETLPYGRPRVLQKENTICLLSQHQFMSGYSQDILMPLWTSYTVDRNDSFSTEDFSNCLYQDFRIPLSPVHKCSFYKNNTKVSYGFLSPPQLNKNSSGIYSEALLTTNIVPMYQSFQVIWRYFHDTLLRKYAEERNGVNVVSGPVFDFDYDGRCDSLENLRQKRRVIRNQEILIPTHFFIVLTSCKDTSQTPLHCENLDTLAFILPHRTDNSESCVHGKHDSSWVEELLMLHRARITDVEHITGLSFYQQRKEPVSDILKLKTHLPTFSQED
Label scheme, based on IC50: L = under 400 nM, M = from 400 nM up to 3000 nM, H = 3000 nM and over

>>> class_name("N#Cc1cccc(-c2cccc3c(Cl)c(Br)c(C(F)(F)F)nc23)c1")
"L"
>>> class_name("FC(F)(F)c1nc2c(-c3ccccc3)cccc2c(Cl)c1-c1ccccc1")
"M"
>>> class_name("Cc1ccc(-c2c(C(F)(F)F)nc3c(-c4ccc(C)cc4)cccc3c2-c2ccc(C)cc2)cc1")
"M"
>>> class_name("Cc1cccc(-c2c(C(F)(F)F)nc3c(-c4cccc(C)c4)cccc3c2-c2cccc(C)c2)c1")
"H"
>>> class_name("FC(F)(F)c1nc2c(Br)cccc2c(Cl)c1Br")
"H"
>>> class_name("FC(F)(F)c1nc2c(-c3ccccc3)cccc2c(-c2ccccc2)c1-c1ccccc1")
"L"
>>> class_name("COc1ccc(-c2c(C(F)(F)F)nc3c(-c4ccc(OC)cc4)cccc3c2-c2ccc(OC)cc2)cc1")
"H"
>>> class_name("FC(F)(F)c1ccc(-c2cccc3c(Cl)c(Br)c(C(F)(F)F)nc23)cc1")
"L"
>>> class_name("Fc1ccc(-c2c(C(F)(F)F)nc3c(-c4ccc(F)cc4)cccc3c2-c2ccc(F)cc2)cc1")
"M"
>>> class_name("O=c1c(Br)c(C(F)(F)F)[nH]c2c(Br)cccc12")
"M"
>>> class_name("COc1ccc(OC)c(-c2cccc3c(Cl)c(Br)c(C(F)(F)F)nc23)c1")
"L"
>>> class_name("FC(F)(F)c1nc2c(-c3ccsc3)cccc2c(Cl)c1Br")
"H"

* * *

Molecular target: Ectonucleotide pyrophosphatase/phosphodiesterase family member 3 (Homo sapiens, UniProt O14638)
Sequence (O14638 whole entry): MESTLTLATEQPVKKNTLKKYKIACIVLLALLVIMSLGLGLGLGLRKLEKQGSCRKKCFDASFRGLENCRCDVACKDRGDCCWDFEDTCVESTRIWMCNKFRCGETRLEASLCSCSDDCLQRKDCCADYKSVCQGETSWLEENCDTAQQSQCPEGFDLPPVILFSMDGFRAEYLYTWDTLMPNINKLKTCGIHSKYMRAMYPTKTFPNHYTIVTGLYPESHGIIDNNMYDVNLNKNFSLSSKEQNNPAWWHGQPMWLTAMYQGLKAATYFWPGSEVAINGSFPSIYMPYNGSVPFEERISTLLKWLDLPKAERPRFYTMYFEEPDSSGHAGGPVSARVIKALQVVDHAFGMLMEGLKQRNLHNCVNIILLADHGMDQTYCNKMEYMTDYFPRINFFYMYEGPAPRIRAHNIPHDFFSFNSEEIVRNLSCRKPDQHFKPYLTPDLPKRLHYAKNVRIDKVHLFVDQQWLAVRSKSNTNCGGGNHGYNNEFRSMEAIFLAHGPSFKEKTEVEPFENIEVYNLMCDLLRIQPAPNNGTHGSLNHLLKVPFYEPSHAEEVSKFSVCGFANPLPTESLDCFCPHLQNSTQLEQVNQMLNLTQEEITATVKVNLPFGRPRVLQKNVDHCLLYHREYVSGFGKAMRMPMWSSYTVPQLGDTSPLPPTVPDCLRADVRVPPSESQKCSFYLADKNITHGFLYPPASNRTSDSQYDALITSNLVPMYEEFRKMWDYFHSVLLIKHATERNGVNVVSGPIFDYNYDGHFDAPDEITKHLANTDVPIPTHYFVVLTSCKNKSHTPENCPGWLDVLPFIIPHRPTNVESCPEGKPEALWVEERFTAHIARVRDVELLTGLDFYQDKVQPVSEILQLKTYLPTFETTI
MEASURED ATTRIBUTE: IC50

>>> recorded_value("Cc1ccc(-c2c(C(F)(F)F)nc3c(-c4ccc(C)cc4)cccc3c2-c2ccc(C)cc2)cc1")
"> 100 µM"
>>> recorded_value("Cc1cccc(-c2c(C(F)(F)F)nc3c(-c4cccc(C)c4)cccc3c2-c2cccc(C)c2)c1")
"> 100 µM"
>>> recorded_value("Fc1ccc(-c2c(C(F)(F)F)nc3c(-c4ccc(F)cc4)cccc3c2-c2ccc(F)cc2)cc1")
"> 100 µM"
